target: human 5-HT4 receptor (Homo sapiens, UniProt Q13639); experiment: Binding affinity of compounds for 5-HT4 receptor (radioligand displacement, membrane lysates of COS-7 cells); conditions: inhibition of specific binding of 0.595 nM [H3]-AGR113808; COS-7 cell membrane lysates expressing human 5-HT4 receptor
Sequence (Q13639 whole entry): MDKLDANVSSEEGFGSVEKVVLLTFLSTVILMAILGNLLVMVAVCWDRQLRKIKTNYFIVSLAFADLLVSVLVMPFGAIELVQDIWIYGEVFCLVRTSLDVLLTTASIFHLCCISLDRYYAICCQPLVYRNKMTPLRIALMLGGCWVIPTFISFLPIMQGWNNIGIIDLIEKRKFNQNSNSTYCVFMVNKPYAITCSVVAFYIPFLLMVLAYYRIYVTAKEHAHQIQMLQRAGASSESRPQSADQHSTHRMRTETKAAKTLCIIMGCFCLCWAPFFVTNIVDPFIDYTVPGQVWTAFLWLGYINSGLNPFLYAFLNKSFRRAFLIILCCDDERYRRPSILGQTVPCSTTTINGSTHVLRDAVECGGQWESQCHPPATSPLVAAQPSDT
Threshold-based label: IC50 under 100 nM gives condition met, IC50 not under 100 nM gives condition not met.

>  <compound>
CCC(C)CCOC(=O)N1CCC(CN2CC[C@H](NC(=O)c3cc(Cl)c(N)cc3OC)[C@H](OC)C2)CC1 (relative stereo) [Compound 12]

>  <assigned-category>
condition not met

$$$$
>  <compound>
COc1cc(N)c(Cl)cc1C(=O)N[C@H]1CCN(CC2CCN(C(=O)CC(C)(C)C)CC2)C[C@H]1OC (relative stereo) [Compound 26]

>  <assigned-category>
condition met

$$$$
>  <compound>
COc1cc(N)c(Cl)cc1C(=O)N[C@H]1CCN(CC2CCN(C(=S)CC(C)C)CC2)C[C@H]1OC (relative stereo) [Compound 36]

>  <assigned-category>
condition not met

$$$$
>  <compound>
COc1cc(N)c(Cl)cc1C(=O)N[C@H]1CCN(CCCCCC(=O)Nc2ccc3[nH]ccc3c2)C[C@H]1OC (relative stereo) [Compound 62]

>  <assigned-category>
condition met

$$$$
>  <compound>
COc1cc(N)c(Cl)cc1C(=O)N[C@H]1CCN(CCCCCC(=O)Nc2cccc3ncccc23)C[C@H]1OC (relative stereo) [Compound 58]

>  <assigned-category>
condition met

$$$$
>  <compound>
COC(=O)N1CCC(CN2CC[C@H](NC(=O)c3cc(Cl)c(N)cc3OC)[C@H](OC)C2)CC1 (relative stereo) [Compound 5]

>  <assigned-category>
condition not met

$$$$
>  <compound>
CCOC(=O)N1CCC(CCN2CC[C@H](NC(=O)c3cc(Cl)c(N)cc3OC)[C@H](OC)C2)CC1 (relative stereo) [Compound 3]

>  <assigned-category>
condition not met

$$$$
>  <compound>
COc1cc(N)c(Cl)cc1C(=O)N[C@H]1CCN(CCC(=O)Nc2ccc3[nH]ccc3c2)C[C@H]1OC (relative stereo) [Compound 61]

>  <assigned-category>
condition met

$$$$
>  <compound>
COc1cc(N)c(Cl)cc1C(=O)N[C@H]1CCN(CC2CCN(C(=O)OC(C)C)CC2)C[C@H]1OC (relative stereo) [Compound 8]

>  <assigned-category>
condition not met

$$$$
>  <compound>
COc1cc(N)c(Cl)cc1C(=O)N[C@H]1CCN(CC2CCN(C(=O)OCCCC(C)C)CC2)C[C@H]1OC (relative stereo) [Compound 13]

>  <assigned-category>
condition not met

$$$$
>  <compound>
COc1cc(N)c(Cl)cc1C(=O)N[C@H]1CCN(CC2CCN(C(C)=S)CC2)C[C@H]1OC (relative stereo) [Compound 31]

>  <assigned-category>
condition not met

$$$$
>  <compound>
COc1cc(N)c(Cl)cc1C(=O)N[C@H]1CCN(CC2CCN(C(=S)CCC(C)C)CC2)C[C@H]1OC (relative stereo) [Compound 37]

>  <assigned-category>
condition not met

$$$$
>  <compound>
COc1cc(N)c(Cl)cc1C(=O)N[C@H]1CCN(CC2CCN(C(=O)CCC(C)C)CC2)C[C@H]1OC (relative stereo) [Compound 27]

>  <assigned-category>
condition met

$$$$
>  <compound>
CCCOC(=O)N1CCC(CN2CC[C@H](NC(=O)c3cc(Cl)c(N)cc3OC)[C@H](OC)C2)CC1 (relative stereo) [Compound 6]

>  <assigned-category>
condition met

$$$$
>  <compound>
COc1cc(N)c(Cl)cc1C(=O)N[C@@H]1CCN(CC2CCN(S(C)(=O)=O)CC2)C[C@@H]1OC [Compound 44]

>  <assigned-category>
condition not met

$$$$
>  <compound>
CCCC(=S)N1CCC(CN2CC[C@H](NC(=O)c3cc(Cl)c(N)cc3OC)[C@H](OC)C2)CC1 (relative stereo) [Compound 35]

>  <assigned-category>
condition not met

$$$$
>  <compound>
COc1cc(N)c(Cl)cc1C(=O)N[C@H]1CCN(CC2CCN(C(=O)N(C)C)CC2)C[C@H]1OC (relative stereo) [Compound 64]

>  <assigned-category>
condition met

$$$$
>  <compound>
CCSC(=O)N1CCC(CN2CC[C@H](NC(=O)c3cc(Cl)c(N)cc3OC)[C@H](OC)C2)CC1 (relative stereo) [Compound 39]

>  <assigned-category>
condition met

$$$$
>  <compound>
CCCCC(CC)COC(=O)N1CCC(CN2CC[C@H](NC(=O)c3cc(Cl)c(N)cc3OC)[C@H](OC)C2)CC1 (relative stereo) [Compound 11]

>  <assigned-category>
condition met

$$$$
>  <compound>
CCOC(=O)N1CCC(CN2CC[C@H](NC(=O)c3cc(Cl)c(N)cc3OC)[C@H](OC)C2)CC1 (relative stereo) [Compound 1]

>  <assigned-category>
condition not met

$$$$
>  <compound>
CCCCOC(=O)N1CCC(CN2CC[C@H](NC(=O)c3cc(Cl)c(N)cc3OC)[C@H](OC)C2)CC1 (relative stereo) [Compound 7]

>  <assigned-category>
condition met

$$$$
>  <compound>
CCCC(C)C(=O)N1CCC(CN2CC[C@H](NC(=O)c3cc(Cl)c(N)cc3OC)[C@H](OC)C2)CC1 (relative stereo) [Compound 24]

>  <assigned-category>
condition met

$$$$
>  <compound>
CCOC(=O)N1CCC(CN2CC[C@@H](NC(=O)c3cc(Cl)c(N)cc3OC)[C@@H](OC)C2)CC1 [Compound 2]

>  <assigned-category>
condition met

$$$$
>  <compound>
COc1cc(N)c(Cl)cc1C(=O)N[C@H]1CCN(CC2CCN(C(=O)C(C)C)CC2)C[C@H]1OC (relative stereo) [Compound 14]

>  <assigned-category>
condition not met

$$$$
>  <compound>
CCCCC(=S)N1CCC(CN2CC[C@H](NC(=O)c3cc(Cl)c(N)cc3OC)[C@H](OC)C2)CC1 (relative stereo) [Compound 33]

>  <assigned-category>
condition not met

$$$$

These data points were gathered from patent US20100105727A1.
